// provenance: patent EP4763839A1

Overview of recorded IC50 for various compounds
Target: IRAK4 (Homo sapiens)
Sequence (Q9NWZ3 1-460): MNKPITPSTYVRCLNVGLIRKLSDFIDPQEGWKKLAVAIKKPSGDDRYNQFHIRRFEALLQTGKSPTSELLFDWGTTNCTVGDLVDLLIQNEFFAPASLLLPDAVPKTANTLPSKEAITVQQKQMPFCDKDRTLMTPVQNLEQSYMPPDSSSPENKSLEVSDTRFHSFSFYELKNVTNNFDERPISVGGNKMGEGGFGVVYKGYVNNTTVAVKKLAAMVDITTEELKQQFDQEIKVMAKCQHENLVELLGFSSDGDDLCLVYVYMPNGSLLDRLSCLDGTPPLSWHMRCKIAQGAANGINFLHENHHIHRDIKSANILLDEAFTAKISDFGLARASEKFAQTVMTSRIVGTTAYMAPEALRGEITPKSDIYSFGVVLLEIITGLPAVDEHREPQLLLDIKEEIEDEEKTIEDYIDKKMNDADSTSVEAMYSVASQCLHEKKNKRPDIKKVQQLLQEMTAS
Test: Assay for inhibitory effect of compound on IRAK4 kinase activity (KinEASE-STK S1 HTRF kit)
Assay type: biochemical
value.type: IC50

- compound: "NS(=O)(=O)c1nn(C2CCC2)cc1NC(=O)c1ccn2ncc(-c3ccn[nH]3)c2n1"
  reported.result: "< 100 nM"
- compound: "CS(=N)(=O)c1cn(-c2ccccc2)nc1NC(=O)c1cccc(C(F)(F)F)n1 (stereo not shown)"
  reported.result: "> 1000 nM"
- compound: "NC(=O)c1nn(-c2ccc(C(=O)O)nc2)cc1NC(=O)c1cccc(C(F)(F)F)n1"
  reported.result: "100 to 1000 nM"
- compound: "COc1nn(-c2ccc(N3CCNCC3)cc2)cc1NC(=O)c1cccc(C(F)(F)F)n1"
  reported.result: "100 to 1000 nM"

* * *

target: IRAK4 (Homo sapiens); assay: Degradation of IRAK4 in THP1 cells, Western blot; assay type: cell-based; design: Degradation of IRAK4 in THP1 by compound; host or cells: THP-1; details: THP-1 cells, 24 hours of incubation, IRAK4 protein by Western blot; read-out: DC50
value.type: DC50

- compound: "Cn1c(=O)n(C2CCC(=O)NC2=O)c2cccc(N3CCC4(CCN(Cc5ccc(-n6cc(NC(=O)c7cccc(C(F)(F)F)n7)c(C(N)=O)n6)cc5)C4)CC3)c21 (stereo not drawn) [Compound A140]"
  target.system: "IRAK4 (Homo sapiens)"
  value.type: "DC50"
  reported.result: "< 100 nM"
- compound: "Cn1c(=O)n(C2CCC(=O)NC2=O)c2cccc(NCC3CC4(C3)CN(C(=O)c3ccc(-n5cc(NC(=O)c6cccc(-c7ccn[nH]7)n6)c(S(N)(=O)=O)n5)cc3)C4)c21 (stereo not drawn) [Compound A354]"
  target.system: "IRAK4 (Homo sapiens)"
  value.type: "DC50"
  reported.result: "< 100 nM"
- compound: "COc1ccc(C(=O)N2CCC(CCN3CCN(c4ccc(-n5cc(NC(=O)c6cccc(C(F)(F)F)n6)c(C(C)(C)O)n5)cc4)CC3)CC2)cc1N1CCC(=O)NC1=O [Compound A454]"
  target.system: "IRAK4 (Homo sapiens)"
  value.type: "DC50"
  reported.result: "< 100 nM"

* * *

Overview of recorded IC50 for various compounds
Biological target: IRAK4 (Homo sapiens)
Sequence (Q9NWZ3 1-460): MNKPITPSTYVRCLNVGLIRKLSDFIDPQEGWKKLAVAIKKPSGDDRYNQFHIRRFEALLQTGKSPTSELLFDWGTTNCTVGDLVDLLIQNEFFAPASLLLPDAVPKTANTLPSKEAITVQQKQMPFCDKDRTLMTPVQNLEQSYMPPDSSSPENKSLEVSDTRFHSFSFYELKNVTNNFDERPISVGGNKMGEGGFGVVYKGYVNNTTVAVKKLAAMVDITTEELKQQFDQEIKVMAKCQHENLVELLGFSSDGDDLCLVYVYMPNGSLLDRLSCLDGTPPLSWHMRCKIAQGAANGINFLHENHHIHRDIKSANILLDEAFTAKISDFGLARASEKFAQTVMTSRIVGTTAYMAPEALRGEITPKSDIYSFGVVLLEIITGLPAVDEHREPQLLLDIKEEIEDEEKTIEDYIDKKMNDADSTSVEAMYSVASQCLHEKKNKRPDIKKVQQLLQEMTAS
Experiment: Assay for inhibitory effect of compound on IRAK4 kinase activity (KinEASE-STK S1 HTRF kit)
Type: biochemical
Conditions: kinase 8 nM, ATP 80 µM, 37°C 90 minutes; read-out: IRAK4 HTRF IC50
value.type: IC50

- compound: "NC(=O)c1[nH]c(-c2ccccc2)cc1NC(=O)c1cccc(C(F)(F)F)n1 [Compound A48]"
  value.type: "IC50"
  reported.result: "< 0.1 µM"
- compound: "NS(=O)(=O)c1cn(-c2ccccc2)nc1NC(=O)c1cccc(C(F)(F)F)n1 [Compound A59]"
  value.type: "IC50"
  reported.result: "> 1 µM"
- compound: "CS(=N)(=O)c1nn(-c2ccccc2)cc1NC(=O)c1cccc(-c2cn[nH]c2)n1 (stereo not shown) [Compound A97]"
  value.type: "IC50"
  reported.result: "< 0.1 µM"
- compound: "NC(=O)c1nn(C2CNC2)cc1NC(=O)c1cccc(C(F)(F)F)n1 [Compound A33]"
  value.type: "IC50"
  reported.result: "0.1 to 1 µM"

* * *

Overview of recorded DC50 for various molecules
Molecular target: IRAK4 (Homo sapiens)
Sequence (Q9NWZ3 1-460): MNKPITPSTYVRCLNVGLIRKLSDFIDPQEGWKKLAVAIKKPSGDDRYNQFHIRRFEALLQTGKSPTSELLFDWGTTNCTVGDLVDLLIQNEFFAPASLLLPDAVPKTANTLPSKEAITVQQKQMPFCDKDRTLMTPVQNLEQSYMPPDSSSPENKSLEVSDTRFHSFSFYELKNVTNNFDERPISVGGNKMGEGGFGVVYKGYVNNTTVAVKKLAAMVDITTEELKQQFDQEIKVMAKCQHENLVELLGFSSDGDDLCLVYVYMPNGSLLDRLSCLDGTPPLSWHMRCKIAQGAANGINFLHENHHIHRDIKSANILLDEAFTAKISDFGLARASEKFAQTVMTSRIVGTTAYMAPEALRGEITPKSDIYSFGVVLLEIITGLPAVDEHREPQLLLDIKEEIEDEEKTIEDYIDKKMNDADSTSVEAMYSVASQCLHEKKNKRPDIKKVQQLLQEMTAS
Assay: Degradation of IRAK4 in THP1 cells, Western blot
Type: cell-based
Parameters: Degradation of IRAK4 in THP1 by compound; host or cells: THP-1
Settings: THP-1 cells, 24 hours of incubation, IRAK4 protein by Western blot; read-out: DC50

- molecule: "Cn1c(=O)n(C2CCC(=O)NC2=O)c2cccc(N3CCC4(CC3)CC(NCc3ccc(-n5cc(NC(=O)c6cccc(-c7ccn[nH]7)n6)c(S(N)(=O)=O)n5)cc3)C4)c21 (stereo not drawn) [Compound A322]"
  target.system: "IRAK4 (Homo sapiens)"
  DC50: "< 100 nM"
- molecule: "NC(=O)c1nn(-c2ccc(COC3CC4(CCN(CC5CCN(c6ccc(NC7CCC(=O)NC7=O)cc6F)CC5)CC4)C3)cc2)cc1NC(=O)c1cccc(C(F)(F)F)n1 (stereo not drawn) [Compound A317]"
  target.system: "IRAK4 (Homo sapiens)"
  DC50: "< 100 nM"
- molecule: "CC(C)(O)c1nn(-c2ccc(N3CCN(CC4CCN(c5ccc(NC6CCC(=O)NC6=O)cc5F)CC4)CC3)cc2)cc1NC(=O)c1cccc(C(F)(F)F)n1 (stereo not drawn) [Compound A434]"
  target.system: "IRAK4 (Homo sapiens)"
  DC50: "< 100 nM"

* * *

biological target: IRAK4 (Homo sapiens); assay: Degradation of IRAK4 in THP1 cells, Western blot; assay type: cell-based; set-up: Degradation of IRAK4 in THP1 by compound; host or cells: THP-1; settings: maximum degradation rate, THP-1 cells, 24 hours of incubation; read-out: Dmax
value.type: Dmax

- compound: "Cn1c(=O)n(C2CCC(=O)NC2=O)c2cccc(C#CCOC3CCN(C(=O)c4ccc(-n5cc(NC(=O)c6cccc(-c7ccn[nH]7)n6)c(S(N)(=O)=O)n5)cc4)CC3)c21 (centres unmarked) [Compound A335]"
  value.type: "Dmax"
  reported.result: "> 60%"
- compound: "NC(=O)c1nn(-c2ccc(N3CCN(C4CCN(c5ccc(C(=O)NC6CCC(=O)NC6=O)nc5)CC4)CC3)cc2)cc1NC(=O)c1cccc(C(F)(F)F)n1 (centres unmarked) [Compound A379]"
  value.type: "Dmax"
  reported.result: "> 60%"
- compound: "NC(=O)c1nn(-c2ccc(N3CCN(C4CCN(c5ccc(C(=O)NC6CCC(=O)NC6=O)cn5)CC4)CC3)cc2)cc1NC(=O)c1cccc(C(F)(F)F)n1 (centres unmarked) [Compound A433]"
  value.type: "Dmax"
  reported.result: "40 to 60%"
- compound: "Cn1c(=O)n(C2CCC(=O)NC2=O)c2cccc(N3CCC(N4CCN(Cc5ccc(-n6cc(NC(=O)c7cccc(C(F)(F)F)n7)c(C(N)=O)n6)cc5)CC4)CC3)c21 (centres unmarked) [Compound A373]"
  value.type: "Dmax"
  reported.result: "> 60%"
- compound: "Cn1c(=O)n(C2CCC(=O)NC2=O)c2cccc(C#CCOC3CN(C(=O)c4ccc(-n5cc(NC(=O)c6cccc(-c7ccn[nH]7)n6)c(S(N)(=O)=O)n5)cc4)C3)c21 (centres unmarked) [Compound A348]"
  value.type: "Dmax"
  reported.result: "> 60%"
- compound: "CC(C)(O)c1nn(-c2ccc(N3CCN(C4CCN(c5ccc(NC6CCC(=O)NC6=O)cc5F)CC4)CC3)cc2)cc1NC(=O)c1cncc(C#N)c1 (centres unmarked) [Compound A389]"
  value.type: "Dmax"
  reported.result: "< 40%"
- compound: "N#Cc1cccc(C(=O)Nc2cn(-c3ccc(N4CCN(C5CCN(c6ccc(NC7CCC(=O)NC7=O)cc6F)CC5)CC4)cc3)nc2C(N)=O)n1 (centres unmarked) [Compound A388]"
  value.type: "Dmax"
  reported.result: "< 40%"
- compound: "N#Cc1ccnc(C(=O)Nc2cn(-c3ccc(N4CCN(CC5CCN(c6ccc(NC7CCC(=O)NC7=O)cc6F)CC5)CC4)cc3)nc2C(N)=O)c1 (centres unmarked) [Compound A349]"
  value.type: "Dmax"
  reported.result: "< 40%"
- compound: "Cn1c(=O)n(C2CCC(=O)NC2=O)c2cccc(N3CCC(C(=O)N4CCN(Cc5ccc(-n6cc(NC(=O)c7cccc(-c8ccn[nH]8)n7)c(S(N)(=O)=O)n6)cc5)CC4)CC3)c21 (centres unmarked) [Compound A331]"
  value.type: "Dmax"
  reported.result: "> 60%"
- compound: "COc1ccc(C(=O)N2CCC(CCN3CCN(c4ccc(-n5cc(NC(=O)c6cccc(C(F)(F)F)n6)c(C(N)=O)n5)cc4)CC3)CC2)cc1N1CCC(=O)NC1=O [Compound A144]"
  value.type: "Dmax"
  reported.result: "> 60%"
- compound: "CC(C)(O)c1nn(-c2ccc(N3CCN(C4CCN(c5ccc(C(=O)NC6CCC(=O)NC6=O)c(F)c5)CC4)CC3)cc2)cc1NC(=O)c1cccc(C(F)(F)F)n1 (centres unmarked) [Compound A442]"
  value.type: "Dmax"
  reported.result: "> 60%"
